# System: Escherichia coli
# assayExplanation: Displacement of biotinylated-TM PAA from Escherichia coli FimH expressed in Escherichia coli HM125 at 1 mM after 3 hrs by colorimetry
The source made the active and inactive calls. The rule behind the calls is not given here.
recordedEndpoint: inhibition

smilesNotation	inhibition
O=C(O)c1ccc(-c2ccc(O[C@H]3O[C@H](CO)[C@@H](O)[C@H](O)[C@@H]3O)c(Cl)c2)cc1	Active
CN1CCN(c2c(Nc3ccc(O[C@H]4O[C@H](CO)[C@@H](O)[C@H](O)[C@@H]4O)c(Cl)c3)c(=O)c2=O)CC1	Active
O=C(O)c1ccc2c(ccn2-c2ccc(O[C@H]3O[C@H](CO)[C@@H](O)[C@H](O)[C@@H]3O)c(Cl)c2)c1	Active
CCCCCCCO[C@H]1O[C@H](CO)[C@@H](O)[C@H](O)[C@@H]1O	Active

Here is another compound to look at.
Qu. Entry O=C(O)c1ccc(-c2ccc(O[C@H]3O[C@H](CO)[C@@H](O)[C@H](O)[C@@H]3O)cc2)cc1 needs its inhibition filled in; supply it.
Ans. Active

###

# assayExplanation: Cmax in mouse
# Assay type: ADME, organism-based
# setupConditions: in vivo
recordedEndpoint: Cmax (µM)

smilesNotation	Cmax [µM]
O=C(O)c1ccc(-c2ccc(O[C@H]3O[C@H](CO)[C@@H](O)[C@H](O)[C@@H]3O)c(Cl)c2)cc1	97

I = O=C(O)c1ccc(-c2ccc(O[C@H]3O[C@H](CO)[C@@H](O)[C@H](O)[C@@H]3O)cc2)cc1
II = CCCCCCCO[C@H]1O[C@H](CO)[C@@H](O)[C@H](O)[C@@H]1O
Qu. Min Cmax? I | II Your choice should be expressed through its label.
Ans. I

###

# studySystem: UniProtKB P22897
# Sequence (P22897 whole entry): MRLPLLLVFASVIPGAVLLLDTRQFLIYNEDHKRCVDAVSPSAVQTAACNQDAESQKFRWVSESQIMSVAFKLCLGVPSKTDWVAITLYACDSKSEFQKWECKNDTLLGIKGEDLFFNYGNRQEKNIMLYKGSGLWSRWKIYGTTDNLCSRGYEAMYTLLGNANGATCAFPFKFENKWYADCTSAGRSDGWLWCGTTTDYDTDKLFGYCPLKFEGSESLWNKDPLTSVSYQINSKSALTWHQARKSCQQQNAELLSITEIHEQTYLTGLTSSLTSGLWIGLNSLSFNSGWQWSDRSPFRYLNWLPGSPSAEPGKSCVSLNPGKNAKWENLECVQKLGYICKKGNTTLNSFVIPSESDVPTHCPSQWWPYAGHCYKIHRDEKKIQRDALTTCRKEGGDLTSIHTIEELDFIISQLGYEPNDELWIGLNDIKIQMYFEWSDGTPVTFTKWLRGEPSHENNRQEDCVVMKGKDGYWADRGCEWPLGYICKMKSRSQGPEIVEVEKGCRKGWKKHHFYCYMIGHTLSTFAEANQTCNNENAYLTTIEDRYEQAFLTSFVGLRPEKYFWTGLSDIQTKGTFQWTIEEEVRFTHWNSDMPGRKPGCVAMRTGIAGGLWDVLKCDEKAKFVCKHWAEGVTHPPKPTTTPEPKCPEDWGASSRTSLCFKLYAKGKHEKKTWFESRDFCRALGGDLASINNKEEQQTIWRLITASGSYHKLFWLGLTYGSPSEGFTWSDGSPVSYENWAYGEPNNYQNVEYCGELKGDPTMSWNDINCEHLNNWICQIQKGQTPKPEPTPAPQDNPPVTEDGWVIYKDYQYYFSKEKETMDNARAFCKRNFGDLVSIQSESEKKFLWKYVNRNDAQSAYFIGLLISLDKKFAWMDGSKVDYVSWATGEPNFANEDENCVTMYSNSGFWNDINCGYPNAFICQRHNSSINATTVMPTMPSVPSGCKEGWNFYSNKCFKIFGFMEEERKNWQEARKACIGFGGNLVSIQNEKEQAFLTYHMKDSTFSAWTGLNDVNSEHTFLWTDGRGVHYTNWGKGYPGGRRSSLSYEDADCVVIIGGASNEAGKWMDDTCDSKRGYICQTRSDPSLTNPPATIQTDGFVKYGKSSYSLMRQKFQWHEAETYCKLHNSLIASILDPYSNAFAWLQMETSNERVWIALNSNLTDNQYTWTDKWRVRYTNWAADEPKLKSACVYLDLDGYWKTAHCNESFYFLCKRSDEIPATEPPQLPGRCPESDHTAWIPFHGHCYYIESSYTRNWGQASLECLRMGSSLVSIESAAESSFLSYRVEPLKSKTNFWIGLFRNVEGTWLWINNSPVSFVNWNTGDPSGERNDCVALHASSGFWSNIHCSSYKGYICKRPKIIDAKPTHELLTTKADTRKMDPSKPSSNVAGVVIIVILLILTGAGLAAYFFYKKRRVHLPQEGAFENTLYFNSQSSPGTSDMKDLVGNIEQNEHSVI
# assayExplanation: Displacement of biotinylated-TM PAA from human MMR at 1 mM after 3 hrs by colorimetry
Activity calls are given as the source filed them. The calls are words filed in the database; no cut-off is given here.
recordedEndpoint: inhibition

These recorded examples may help you get a feel for the data.
smilesNotation	inhibition
O=C(O)c1ccc(-c2ccc(O[C@H]3O[C@H](CO)[C@@H](O)[C@H](O)[C@@H]3O)cc2)cc1	inactive
O=C(O)c1ccc2c(ccn2-c2ccc(O[C@H]3O[C@H](CO)[C@@H](O)[C@H](O)[C@@H]3O)c(Cl)c2)c1	58%
CCCCCCCO[C@H]1O[C@H](CO)[C@@H](O)[C@H](O)[C@@H]1O	inactive
CN1CCN(c2c(Nc3ccc(O[C@H]4O[C@H](CO)[C@@H](O)[C@H](O)[C@@H]4O)c(Cl)c3)c(=O)c2=O)CC1	inactive

Now consider the entry below.
Qu. Look up inhibition of O=C(O)c1ccc(-c2ccc(O[C@H]3O[C@H](CO)[C@@H](O)[C@H](O)[C@@H]3O)c(Cl)c2)cc1 and report it.
Ans. 54%

###

# studySystem: C-type lectin domain family 4 member C (Homo sapiens)
# assayExplanation: Displacement of biotinylated-TM PAA from human DLEC at 1 mM after 3 hrs by colorimetry
The source made the active and inactive calls. No cut-off for these calls is given here.
recordedEndpoint: inhibition

Example results:
smilesNotation	studySystem	inhibition
O=C(O)c1ccc(-c2ccc(O[C@H]3O[C@H](CO)[C@@H](O)[C@H](O)[C@@H]3O)cc2)cc1	C-type lectin domain family 4 member C (Homo sapiens)	50%
O=C(O)c1ccc2c(ccn2-c2ccc(O[C@H]3O[C@H](CO)[C@@H](O)[C@H](O)[C@@H]3O)c(Cl)c2)c1	C-type lectin domain family 4 member C (Homo sapiens)	inactive
CCCCCCCO[C@H]1O[C@H](CO)[C@@H](O)[C@H](O)[C@@H]1O	C-type lectin domain family 4 member C (Homo sapiens)	inactive
O=C(O)c1ccc(-c2ccc(O[C@H]3O[C@H](CO)[C@@H](O)[C@H](O)[C@@H]3O)c(Cl)c2)cc1	C-type lectin domain family 4 member C (Homo sapiens)	inactive

For the next question, use this compound.
Qu. Fill in: inhibition on C-type lectin domain family 4 member C (Homo sapiens), entry CN1CCN(c2c(Nc3ccc(O[C@H]4O[C@H](CO)[C@@H](O)[C@H](O)[C@@H]4O)c(Cl)c3)c(=O)c2=O)CC1
Ans. inactive

###

# studySystem: C-type lectin domain family 4 member K (Homo sapiens, UniProt Q9UJ71)
# Sequence (Q9UJ71 whole entry, the tested form may be a part): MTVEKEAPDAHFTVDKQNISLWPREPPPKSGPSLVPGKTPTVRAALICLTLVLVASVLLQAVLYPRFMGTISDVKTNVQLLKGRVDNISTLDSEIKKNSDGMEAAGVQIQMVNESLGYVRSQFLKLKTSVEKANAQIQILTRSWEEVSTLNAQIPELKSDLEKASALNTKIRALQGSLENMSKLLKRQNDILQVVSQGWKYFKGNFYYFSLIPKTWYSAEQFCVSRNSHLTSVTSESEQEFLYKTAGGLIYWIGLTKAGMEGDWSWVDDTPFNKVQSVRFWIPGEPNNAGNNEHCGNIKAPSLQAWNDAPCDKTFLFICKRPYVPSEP
# assayExplanation: Displacement of biotinylated-TM PAA from human langerin at 1 mM after 3 hrs by colorimetry
The source made the active and inactive calls. The rule behind the calls is not given here.
recordedEndpoint: inhibition

smilesNotation	studySystem	recordedEndpoint	assayValue
CCCCCCCO[C@H]1O[C@H](CO)[C@@H](O)[C@H](O)[C@@H]1O	C-type lectin domain family 4 member K (Homo sapiens, UniProt Q9UJ71)	inhibition	inactive
CN1CCN(c2c(Nc3ccc(O[C@H]4O[C@H](CO)[C@@H](O)[C@H](O)[C@@H]4O)c(Cl)c3)c(=O)c2=O)CC1	C-type lectin domain family 4 member K (Homo sapiens, UniProt Q9UJ71)	inhibition	inactive
O=C(O)c1ccc(-c2ccc(O[C@H]3O[C@H](CO)[C@@H](O)[C@H](O)[C@@H]3O)cc2)cc1	C-type lectin domain family 4 member K (Homo sapiens, UniProt Q9UJ71)	inhibition	inactive
O=C(O)c1ccc(-c2ccc(O[C@H]3O[C@H](CO)[C@@H](O)[C@H](O)[C@@H]3O)c(Cl)c2)cc1	C-type lectin domain family 4 member K (Homo sapiens, UniProt Q9UJ71)	inhibition	63%

Moving on to another compound below.
Qu. Write inhibition of O=C(O)c1ccc2c(ccn2-c2ccc(O[C@H]3O[C@H](CO)[C@@H](O)[C@H](O)[C@@H]3O)c(Cl)c2)c1 ; system used: C-type lectin domain family 4 member K (Homo sapiens, UniProt Q9UJ71)
Ans. inactive

Each recorded value in this set is attributed to ChEMBL document CHEMBL2176984.
